# study system: Voltage-dependent L-type calcium channel subunit alpha-1C (Homo sapiens)
# Sequence (Q13936 whole entry): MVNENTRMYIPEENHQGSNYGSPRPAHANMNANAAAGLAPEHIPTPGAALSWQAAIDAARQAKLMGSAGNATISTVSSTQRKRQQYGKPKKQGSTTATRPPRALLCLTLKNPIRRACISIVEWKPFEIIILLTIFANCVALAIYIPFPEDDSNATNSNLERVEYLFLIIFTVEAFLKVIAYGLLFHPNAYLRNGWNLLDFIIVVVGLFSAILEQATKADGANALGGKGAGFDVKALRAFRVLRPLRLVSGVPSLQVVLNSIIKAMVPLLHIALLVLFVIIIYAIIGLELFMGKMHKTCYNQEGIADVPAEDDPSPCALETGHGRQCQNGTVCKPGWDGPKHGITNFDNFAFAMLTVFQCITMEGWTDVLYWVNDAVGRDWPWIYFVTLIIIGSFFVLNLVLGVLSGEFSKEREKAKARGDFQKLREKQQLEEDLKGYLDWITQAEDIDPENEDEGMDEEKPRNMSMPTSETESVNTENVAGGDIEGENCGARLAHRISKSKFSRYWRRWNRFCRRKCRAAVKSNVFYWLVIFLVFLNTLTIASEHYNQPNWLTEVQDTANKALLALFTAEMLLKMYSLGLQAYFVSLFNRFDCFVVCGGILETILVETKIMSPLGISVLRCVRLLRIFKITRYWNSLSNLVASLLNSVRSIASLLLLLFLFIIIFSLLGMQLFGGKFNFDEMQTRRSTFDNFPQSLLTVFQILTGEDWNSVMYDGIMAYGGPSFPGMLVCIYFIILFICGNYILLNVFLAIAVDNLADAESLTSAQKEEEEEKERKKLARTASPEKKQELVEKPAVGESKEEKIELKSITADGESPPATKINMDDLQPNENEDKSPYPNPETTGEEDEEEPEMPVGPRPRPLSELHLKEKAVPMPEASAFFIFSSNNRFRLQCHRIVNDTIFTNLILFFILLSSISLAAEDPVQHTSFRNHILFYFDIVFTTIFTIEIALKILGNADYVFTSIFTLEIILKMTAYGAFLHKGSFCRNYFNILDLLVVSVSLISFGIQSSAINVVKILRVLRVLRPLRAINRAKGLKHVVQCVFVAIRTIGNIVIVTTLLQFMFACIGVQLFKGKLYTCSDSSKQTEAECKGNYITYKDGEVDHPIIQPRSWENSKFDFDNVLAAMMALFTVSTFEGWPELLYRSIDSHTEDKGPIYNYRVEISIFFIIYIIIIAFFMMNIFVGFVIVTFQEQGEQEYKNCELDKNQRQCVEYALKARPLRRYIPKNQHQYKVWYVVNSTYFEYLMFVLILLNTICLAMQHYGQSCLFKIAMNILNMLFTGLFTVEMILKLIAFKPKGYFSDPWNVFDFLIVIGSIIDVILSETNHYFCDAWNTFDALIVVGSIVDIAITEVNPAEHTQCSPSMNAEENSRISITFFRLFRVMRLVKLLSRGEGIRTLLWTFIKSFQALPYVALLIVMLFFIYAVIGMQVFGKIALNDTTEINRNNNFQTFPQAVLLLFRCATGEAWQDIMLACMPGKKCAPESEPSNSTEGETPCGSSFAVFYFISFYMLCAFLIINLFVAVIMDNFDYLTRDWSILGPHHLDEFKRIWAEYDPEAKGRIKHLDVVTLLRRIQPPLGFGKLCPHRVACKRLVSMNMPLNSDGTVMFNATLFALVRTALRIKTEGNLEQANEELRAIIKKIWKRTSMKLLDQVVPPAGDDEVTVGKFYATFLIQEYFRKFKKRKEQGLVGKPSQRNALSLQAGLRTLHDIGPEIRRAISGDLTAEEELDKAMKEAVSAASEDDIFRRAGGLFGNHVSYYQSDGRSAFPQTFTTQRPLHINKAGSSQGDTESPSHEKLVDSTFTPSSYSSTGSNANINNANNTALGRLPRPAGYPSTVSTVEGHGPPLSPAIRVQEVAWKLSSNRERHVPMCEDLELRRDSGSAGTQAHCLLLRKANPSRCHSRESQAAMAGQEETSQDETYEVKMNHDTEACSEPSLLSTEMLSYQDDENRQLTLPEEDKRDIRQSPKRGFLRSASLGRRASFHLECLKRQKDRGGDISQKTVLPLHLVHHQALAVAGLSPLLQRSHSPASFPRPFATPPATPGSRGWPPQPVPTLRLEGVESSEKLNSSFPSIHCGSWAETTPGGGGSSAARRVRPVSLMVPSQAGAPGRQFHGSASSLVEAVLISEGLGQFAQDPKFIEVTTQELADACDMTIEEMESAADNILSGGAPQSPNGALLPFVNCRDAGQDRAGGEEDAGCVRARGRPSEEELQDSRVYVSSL
# protocol notes: Inhibition of Cav1.2 (unknown origin)
property measured: IC50

smi=CCn1c(-c2cnc(C)nc2)nc2c(N[C@H]3CCN(C(=O)C4CC4)C3)ncnc21 property_measured=IC50 reported="> 50 µM"

----------
# protocol notes: Oral bioavailability in C57BL/6 mouse
# Format: ADME, organism-based
# condition description: in vivo
property measured: bioavailability (%)

smi=CCn1c(-c2cnc(C)nc2)nc2c(N[C@H]3CCN(C(=O)C4CC4)C3)ncnc21 property_measured=bioavailability reported=77

----------
# protocol notes: Half-life in Beagle dog
# Assay type: ADME, Canis lupus familiaris
# condition description: in vivo
property measured: half-life (h)

compound=CCC(=O)N1CC[C@H](Oc2ncnc3c2nc(-c2cnc(C)nc2)n3CC)C1 property_measured=half-life uom=h reported=3.9
compound=CCn1c(-c2cnc(C)nc2)nc2c(N[C@H]3CCN(C(=O)[C@H]4C[C@@H](OC)C4)C3)ncnc21 property_measured=half-life uom=h reported=4.3
compound=CCn1c(-c2ccc(C(F)(F)F)nc2)nc2c(O[C@H]3CCN(C(=O)c4cocn4)C3)ncnc21 property_measured=half-life uom=h reported=2.5
compound="CCn1c(-c2cnc(C)nc2)nc2c(O[C@H]3CCN(C(=O)C4CCOC4)C3)ncnc21 (some centres undefined)" property_measured=half-life uom=h reported=3.8
compound=CCn1c(-c2cnc(C)nc2)nc2c(O[C@H]3CCN(C(=O)[C@H]4C[C@@H](OC)C4)C3)ncnc21 property_measured=half-life uom=h reported=3.6
compound=CCn1c(-c2cnc(C)nc2)nc2c(O[C@H]3CCN(C(=O)c4cocn4)C3)ncnc21 property_measured=half-life uom=h reported=1.8
compound=CCn1c(-c2cnc(C)nc2)nc2c(N[C@H]3CCN(C(=O)C4CC4)C3)ncnc21 property_measured=half-life uom=h reported=4.3
compound=CCn1c(-c2ccc(C(F)(F)F)nc2)nc2c(O[C@H]3CCN(C(=O)[C@H]4C[C@@H](OC)C4)C3)ncnc21 property_measured=half-life uom=h reported=2.6
compound=CCn1c(-c2cnc(C)nc2)nc2c(N[C@H]3CCN(C(=O)C4CCC4)C3)ncnc21 property_measured=half-life uom=h reported=1.3

----------
# protocol notes: Volume of distribution in Beagle dog
# Type: ADME, Canis lupus familiaris
# condition description: in vivo
Recorded measurements of Vd, one per entry
property measured: Vd

molecule=CCn1c(-c2cnc(C)nc2)nc2c(N[C@H]3CCN(C(=O)[C@H]4C[C@@H](OC)C4)C3)ncnc21 reported="1.5 L/kg"
molecule=CCn1c(-c2ccc(C(F)(F)F)nc2)nc2c(N[C@H]3CCN(C(=O)C4CC4)C3)ncnc21 reported="1.2 L/kg"
molecule=CCC(=O)N1CC[C@H](Nc2ncnc3c2nc(-c2cnc(C)nc2)n3CC)C1 reported="1.5 L/kg"
molecule=CCn1c(-c2cnc(C)nc2)nc2c(O[C@H]3CCN(C(=O)C4CCOCC4)C3)ncnc21 reported="0.8 L/kg"
molecule=CCn1c(-c2ccc(C(F)(F)F)nc2)nc2c(O[C@H]3CCN(C(=O)[C@H]4C[C@@H](OC)C4)C3)ncnc21 reported="1.1 L/kg"
molecule=CCn1c(-c2cnc(C)nc2)nc2c(N[C@H]3CCN(C(=O)N4CC(OC)C4)C3)ncnc21 reported="1.4 L/kg"
molecule=CCn1c(-c2cnc(C)nc2)nc2c(O[C@H]3CCN(C(=O)C4CC(F)(F)C4)C3)ncnc21 reported="1.4 L/kg"
molecule="CCn1c(-c2ccc(C(F)(F)F)nc2)nc2c(O[C@H]3CCN(C(=O)C4CCOC4)C3)ncnc21 (stereo partly drawn)" reported="0.9 L/kg"

----------
Below, each entry is listed alongside its reported half-life.
# protocol notes: Half-life in Wistar Han rat
# Type: ADME
# condition description: in vivo
property measured: half-life (h)

smi=CCn1c(-c2cnc(C)nc2)nc2c(O[C@H]3CCN(C(=O)C4CCC4)C3)ncnc21 property_measured=half-life reported=0.3
smi=CCn1c(-c2cnc(C)nc2)nc2c(O[C@H]3CCN(C(=O)c4cocn4)C3)ncnc21 property_measured=half-life reported=1.7
smi=CCn1c(-c2cnc(C)nc2)nc2c(N[C@H]3CCN(C(=O)[C@H]4C[C@@H](OC)C4)C3)ncnc21 property_measured=half-life reported=2.3
smi=CCn1c(-c2cnc(C)nc2)nc2c(O[C@H]3CCN(C(=O)C4CC4)C3)ncnc21 property_measured=half-life reported=1.8
smi=CCn1c(-c2cnc(C)nc2)nc2c(N[C@H]3CCN(C(=O)C4CC(F)(F)C4)C3)ncnc21 property_measured=half-life reported=0.4
smi=CCn1c(-c2ccc(C(F)(F)F)nc2)nc2c(N[C@H]3CCN(C(=O)C4CC4)C3)ncnc21 property_measured=half-life reported=1.2
smi=CCn1c(-c2cnc(C)nc2)nc2c(O[C@H]3CCN(C(=O)[C@H]4C[C@@H](OC)C4)C3)ncnc21 property_measured=half-life reported=1.8
smi=CCn1c(-c2cnc(C)nc2)nc2c(N[C@H]3CCN(C(=O)c4cocn4)C3)ncnc21 property_measured=half-life reported=0.7
smi=CCn1c(-c2cnc(C)nc2)nc2c(O[C@H]3CCN(C(=O)C4CC(F)(F)C4)C3)ncnc21 property_measured=half-life reported=1.4
smi=CCn1c(-c2cnc(C)nc2)nc2c(O[C@H]3CCN(C(=O)N4CC(OC)C4)C3)ncnc21 property_measured=half-life reported=1.7
smi=CCn1c(-c2ccc(C(F)(F)F)nc2)nc2c(O[C@H]3CCN(C(=O)[C@H]4C[C@@H](OC)C4)C3)ncnc21 property_measured=half-life reported=3.3
smi=CCn1c(-c2cnc(C)nc2)nc2c(N[C@H]3CCN(C(=O)N4CC(OC)C4)C3)ncnc21 property_measured=half-life reported=4
smi=CCn1c(-c2ccc(C(F)(F)F)nc2)nc2c(O[C@H]3CCN(C(=O)c4cocn4)C3)ncnc21 property_measured=half-life reported=6
smi=CCn1c(-c2cnc(C)nc2)nc2c(N[C@H]3CCN(C(=O)C4CCC4)C3)ncnc21 property_measured=half-life reported=0.6
smi=CCn1c(-c2cnc(C)nc2)nc2c(O[C@H]3CCN(C(=O)C4CCOCC4)C3)ncnc21 property_measured=half-life reported=1.4

----------
# protocol notes: Trough plasma concentration C57BL/6 mouse at 100 mg/kg
# Assay type: ADME, organism-based
# condition description: in vivo, read-out: Cmin
property measured: concentration (nM)

smi=CCn1c(-c2cnc(C)nc2)nc2c(N[C@H]3CCN(C(=O)C4CC4)C3)ncnc21 uom=nM reported=110

----------
# study system: Phosphatidylinositol 4,5-bisphosphate 3-kinase catalytic subunit delta isoform (Homo sapiens)
# Sequence (O00329 whole entry, canonical isoform): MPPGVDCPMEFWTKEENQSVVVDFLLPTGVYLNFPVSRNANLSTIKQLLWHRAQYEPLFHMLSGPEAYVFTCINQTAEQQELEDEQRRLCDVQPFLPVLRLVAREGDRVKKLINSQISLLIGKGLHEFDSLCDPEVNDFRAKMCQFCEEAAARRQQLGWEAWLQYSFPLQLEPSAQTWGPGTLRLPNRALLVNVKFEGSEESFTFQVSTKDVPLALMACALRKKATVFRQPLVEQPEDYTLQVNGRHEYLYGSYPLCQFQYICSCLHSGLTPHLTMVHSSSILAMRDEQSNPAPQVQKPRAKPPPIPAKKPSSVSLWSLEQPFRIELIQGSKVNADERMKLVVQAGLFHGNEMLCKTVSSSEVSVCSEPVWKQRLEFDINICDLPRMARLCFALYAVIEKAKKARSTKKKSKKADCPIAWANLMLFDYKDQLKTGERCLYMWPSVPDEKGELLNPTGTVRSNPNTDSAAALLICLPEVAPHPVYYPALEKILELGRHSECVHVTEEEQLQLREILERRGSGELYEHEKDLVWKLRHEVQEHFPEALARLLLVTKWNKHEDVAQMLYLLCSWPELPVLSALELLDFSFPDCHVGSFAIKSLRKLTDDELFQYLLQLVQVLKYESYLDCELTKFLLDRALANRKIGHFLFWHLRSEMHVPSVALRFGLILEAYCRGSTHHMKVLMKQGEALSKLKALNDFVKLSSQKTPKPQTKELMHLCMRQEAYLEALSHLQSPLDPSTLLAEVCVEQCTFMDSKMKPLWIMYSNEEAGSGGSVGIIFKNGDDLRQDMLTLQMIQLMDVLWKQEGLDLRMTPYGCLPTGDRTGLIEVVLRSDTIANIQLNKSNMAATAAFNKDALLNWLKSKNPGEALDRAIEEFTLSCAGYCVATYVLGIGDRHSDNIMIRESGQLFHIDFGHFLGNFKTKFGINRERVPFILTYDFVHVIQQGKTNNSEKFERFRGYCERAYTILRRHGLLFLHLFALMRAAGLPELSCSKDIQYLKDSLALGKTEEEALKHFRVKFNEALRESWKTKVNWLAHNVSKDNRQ
# protocol notes: Inhibition of PI3Kdelta in human whole blood assessed as reduction in anti-CD79b antibody-induced CD69 expression preincubated for 60 mins followed by anti-CD79b antibody stimulation and measured after 3 hrs by FACS analysis
# Type: tissue-based
Hi! Could you tag entries with IC50 below 60 nM as y, and those at or above as n? Much appreciated.

compound=CCn1c(-c2cnc(C)nc2)nc2c(N[C@H]3CCN(C(=O)[C@H]4C[C@@H](OC)C4)C3)ncnc21 label_value=y
compound="CCn1c(-c2ccc(C(F)(F)F)nc2)nc2c(O[C@H]3CCN(C(=O)C4CCOC4)C3)ncnc21 (some centres undefined)" label_value=n
compound=CCn1c(-c2cnc(C)nc2)nc2c(O[C@H]3CCN(C(=O)C4CC(F)(F)C4)C3)ncnc21 label_value=n
compound=CCn1c(-c2cnc(C)nc2)nc2c(O[C@H]3CCN(C(=O)c4cocn4)C3)ncnc21 label_value=n
compound=CCn1c(-c2cnc(C)nc2)nc2c(N[C@H]3CCN(C(=O)C4CC4)C3)ncnc21 label_value=n
compound=CCn1c(-c2cnc(C)nc2)nc2c(O[C@H]3CCN(C(=O)C4CC4)C3)ncnc21 label_value=n
compound=CCn1c(-c2ccc(C(F)(F)F)nc2)nc2c(O[C@H]3CCN(C(=O)[C@H]4C[C@@H](OC)C4)C3)ncnc21 label_value=n
compound=CCn1c(-c2ccc(C(F)(F)F)nc2)nc2c(O[C@H]3CCN(C(=O)N4CC(OC)C4)C3)ncnc21 label_value=n
compound=CCn1c(-c2cnc(C)nc2)nc2c(N[C@H]3CCN(C(=O)C4CCC4)C3)ncnc21 label_value=y

----------
# protocol notes: Intrinsic clearance in Wistar Han rat at 0.5 mg/kg, iv or 1 mg/kg, po
# Format: ADME, organism-based
# condition description: in vivo
property measured: CL (mL/min/kg)

compound=CCC(=O)N1CC[C@H](Nc2ncnc3c2nc(-c2cnc(C)nc2)n3CC)C1 uom=mL/min/kg reported=100
compound=CCn1c(-c2cnc(C)nc2)nc2c(O[C@H]3CCN(C(=O)N4CC(OC)C4)C3)ncnc21 uom=mL/min/kg reported=25
compound="CCn1c(-c2ccc(C(F)(F)F)nc2)nc2c(O[C@H]3CCN(C(=O)C4CCOC4)C3)ncnc21 (some centres undefined)" uom=mL/min/kg reported=19
compound=CCn1c(-c2cnc(C)nc2)nc2c(O[C@H]3CCN(C(=O)[C@H]4C[C@@H](OC)C4)C3)ncnc21 uom=mL/min/kg reported=19
compound=CCn1c(-c2ccc(C(F)(F)F)nc2)nc2c(O[C@H]3CCN(C(=O)N4CC(OC)C4)C3)ncnc21 uom=mL/min/kg reported=29
compound=CCn1c(-c2cnc(C)nc2)nc2c(O[C@H]3CCN(C(=O)C4CC4)C3)ncnc21 uom=mL/min/kg reported=44
compound=CCn1c(-c2cnc(C)nc2)nc2c(O[C@H]3CCN(C(=O)C4CCOCC4)C3)ncnc21 uom=mL/min/kg reported=37
compound=CCn1c(-c2ccc(C(F)(F)F)nc2)nc2c(O[C@H]3CCN(C(=O)c4cocn4)C3)ncnc21 uom=mL/min/kg reported=13
compound=CCn1c(-c2cnc(C)nc2)nc2c(N[C@H]3CCN(C(=O)N4CC(OC)C4)C3)ncnc21 uom=mL/min/kg reported=93
